# Test system: HCT-116
# PROTOCOL: NCI tumour cell line growth inhibition, 48 h
Calls of active or inactive are those of the source. Rule as the data show it: active = GI50 up to about 1.1 µM and inactive = higher.
// GI50 lookup, one value per entry

# count of solved cases: 5
C1=N\CCNCC/N=C\c2ccc(cc2)OCc2cccc(n2)COc2ccc/1cc2 :: > 100 µM (inactive)
COc1ccc(C2C(=O)c3ccc(OC)cc3OC2c2cccnc2)cc1 (stereo unspecified) :: > 100 µM (inactive)
CC(=O)c1c(O)ccc2c1CC(CC=O)O2 (stereo unspecified) :: 19.7 µM (inactive)
N#C/C(=C\c1ccc(O)c(O)c1)C(N)=S :: 50.2 µM (inactive)
C=C1C(=O)c2cc3c(cc2C(c2cc(OC)c(OC)c(OC)c2)[C@@H]1C(=O)O)OCO3 (stereo partly specified) :: 48.4 µM (inactive)

Next:
Using known records, supply GI50 for O=[N+]([O-])c1ccc(-c2nc3cc([N+](=O)[O-])ccc3[nH]2)cc1
19 µM (inactive)

Source: ChEMBL document CHEMBL1201862
